target.desc: Jak2 (UniProt O60674)
Sequence (O60674 whole entry, looked up): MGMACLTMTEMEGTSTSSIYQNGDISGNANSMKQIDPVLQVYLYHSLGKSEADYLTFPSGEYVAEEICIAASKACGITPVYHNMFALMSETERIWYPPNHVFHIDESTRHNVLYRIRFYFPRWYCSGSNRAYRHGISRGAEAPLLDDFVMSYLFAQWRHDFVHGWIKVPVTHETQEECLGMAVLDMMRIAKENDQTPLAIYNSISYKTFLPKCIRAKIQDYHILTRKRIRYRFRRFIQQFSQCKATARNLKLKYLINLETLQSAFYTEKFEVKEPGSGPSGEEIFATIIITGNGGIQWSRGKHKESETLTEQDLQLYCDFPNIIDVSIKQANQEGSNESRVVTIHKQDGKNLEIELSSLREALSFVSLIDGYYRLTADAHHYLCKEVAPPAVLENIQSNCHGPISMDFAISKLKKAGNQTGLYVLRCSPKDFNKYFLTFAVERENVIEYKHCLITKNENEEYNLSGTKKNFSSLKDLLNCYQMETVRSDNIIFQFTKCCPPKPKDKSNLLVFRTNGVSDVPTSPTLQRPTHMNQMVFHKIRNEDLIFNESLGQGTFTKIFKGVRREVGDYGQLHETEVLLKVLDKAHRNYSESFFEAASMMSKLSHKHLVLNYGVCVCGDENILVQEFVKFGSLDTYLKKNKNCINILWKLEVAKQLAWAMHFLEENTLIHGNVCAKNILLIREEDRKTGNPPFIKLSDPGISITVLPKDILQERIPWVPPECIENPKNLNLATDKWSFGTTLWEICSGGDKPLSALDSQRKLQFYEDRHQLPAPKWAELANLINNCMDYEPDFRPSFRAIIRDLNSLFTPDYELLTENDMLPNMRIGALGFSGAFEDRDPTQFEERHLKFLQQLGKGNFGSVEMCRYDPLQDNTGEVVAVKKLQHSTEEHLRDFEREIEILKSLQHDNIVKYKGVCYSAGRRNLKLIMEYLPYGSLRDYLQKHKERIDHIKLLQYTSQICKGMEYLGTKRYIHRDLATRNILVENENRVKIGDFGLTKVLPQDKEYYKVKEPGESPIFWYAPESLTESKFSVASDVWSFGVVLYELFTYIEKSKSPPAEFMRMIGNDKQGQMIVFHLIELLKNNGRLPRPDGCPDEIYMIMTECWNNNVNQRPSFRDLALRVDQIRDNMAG
assay: phosphorylation enrichment, bacterial display (enrichment ratio); higher = better substrate or ligand; peptides without Tyr show the background;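 further: 11-residue human phosphosite peptides and single-mutation variants displayed on the E. coli surface, counted by deep sequencing, each peptide's frequency after selection divided by its frequency in the unselected input library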;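 further: frequency after pTyr selection over input frequency; kinase dosed for 20-30% of maximal phosphorylation in three min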
The following sequences are listed with their measured phosphorylation enrichment values.

Sample answers from the record:
{"input.sequence": "RGEEPYTKKAL [TTC21B_Y160_K157E]", "phosphorylation enrichment": 0.473}
{"input.sequence": "LVRPPYSFSAL [FOXI1_Y126_YF]", "phosphorylation enrichment": 0.553}
{"input.sequence": "GQAPGYSYTAA [CYCS_Y47]", "phosphorylation enrichment": 0.615}
{"input.sequence": "PSPMPYASCQM [FOXL2_Y215]", "phosphorylation enrichment": 0.98}
{"input.sequence": "DKANRYFSPNV [PTEN_Y336_F341V]", "phosphorylation enrichment": 0.412}
{"input.sequence": "PIPAAYNRYDQ [CDC73_Y290]", "phosphorylation enrichment": 0.416}

Find the recorded phosphorylation enrichment belonging to EYQLPYYNTVP [BMPR1A_Y457_M460T] and report it.
5.82

Now give it for AFGEVYEGQES [ALK_Y1131_V1135E] too.
1.14

Now give it for FPLELYERVRM [PRKCG_Y312_YF] too.
1.09

Now give it for ELTSVYDSRAR [SENP1_Y349] too.
0.592

Now give it for DPGVSYRTREE [PDHA1_Y301] too.
0.549

Now give it for TLMNAYSSRSH [KIF11_Y231] too.
1.08
